As shown below, each of these compounds has a reported IC50 value.
- Test system: Leishmania donovani
- ASSAY_EXPLANATION: Antileishmanial activity against Leishmania donovani MHOM/ET/67/L82 amastigotes assessed as growth inhibition incubated for 70 hrs by resazurin based inverted microscopic analysis
- Format: functional, organism-based
- TEST_PARAMETERS: Leishmania donovani, MHOM/ET/67/L82, 70 h
Just the number in µM, nothing appended.

>  <COMPOUND>
COc1ccc([C@H]2Oc3ccc(/C=C/C(=O)OC(C)(C)C)cc3[C@@H]2C)cc1 (racemic)

>  <UOM>
µM

>  <IC50>
4.01

$$$$
>  <COMPOUND>
CC(=O)Oc1ccc([C@H]2Oc3ccc(/C=C/C(=O)OC(C)(C)C)cc3[C@@H]2C(=O)OC(C)(C)C)cc1 (racemic)

>  <UOM>
µM

>  <IC50>
2.06

$$$$
>  <COMPOUND>
COc1cc(Br)c([C@H]2Oc3ccc(Br)cc3[C@@H]2CO)cc1OC (racemic)

>  <UOM>
µM

>  <IC50>
11.4

$$$$
>  <COMPOUND>
O=S(=O)(OC[C@H]1c2ccccc2O[C@@H]1c1ccc(OS(=O)(=O)c2ccccn2)cc1)c1ccccn1 (racemic)

>  <UOM>
µM

>  <IC50>
6.31

$$$$
>  <COMPOUND>
CC(C)(C)OC(=O)/C=C/c1ccc2c(c1)[C@H](C(=O)OC(C)(C)C)[C@@H](c1ccc(OC(C)(C)C)cc1)O2 (racemic)

>  <UOM>
µM

>  <IC50>
13.1

$$$$

Per the records, this compound ( CCCCCCCCCCCCCCCCOP(=O)([O-])OCC[N+](C)(C)C ) has IC50 equal to 0.77

Per the records, this compound ( CCCNC(=O)/C=C/c1cc(OC)c2c(c1)[C@H](C(=O)NCCC)[C@@H](c1ccc(O)c(OC)c1)O2 (racemic) ) has IC50 equal to 8.88

Per the records, this compound ( COc1cc([C@H]2Oc3ccc(Br)cc3[C@@H]2CO)ccc1O (racemic) ) has IC50 equal to 30.5

---

- System: L6
- ASSAY_EXPLANATION: Cytotoxicity against rat L6 cells assessed as reduction in cell viability incubated for 70 hrs by resazurin staining based inverted microscopic analysis
- TEST_PARAMETERS: L6, 70 h
As shown below, each of these molecules has a reported IC50 value.
Just the number in µM, nothing appended.

Consider the worked cases shown below.
>  <MOLECULE>
COc1ccc([C@H]2Oc3ccccc3[C@@H]2CO)cc1OC (racemic)

>  <SYSTEM>
L6

>  <QUANTITY_MEASURED>
IC50

>  <MEASURED_NUMBER>
53.7

$$$$
>  <MOLECULE>
C/C=C/c1cc(OC)c2c(c1)[C@H](C)[C@@H](c1ccc(O)c(OC)c1)O2 (racemic) [LICARIN A]

>  <SYSTEM>
L6

>  <QUANTITY_MEASURED>
IC50

>  <MEASURED_NUMBER>
6.21

$$$$

Kindly consider the entry below.
Per the records, this molecule ( CC(C)(C)OC(=O)/C=C/c1ccc2c(c1)[C@H](CO)[C@@H](c1ccc(O)cc1)O2 (racemic) ) has IC50 equal to 33.8

---

- Test system: Leishmania donovani
- ASSAY_EXPLANATION: Antileishmanial activity against Leishmania donovani MHOM/ET/67/L82 amastigotes assessed as growth inhibition incubated for 70 hrs by resazurin based inverted microscopic analysis
- Assay type: functional, organism-based
- TEST_PARAMETERS: Leishmania donovani, MHOM/ET/67/L82, 70 h
QUANTITY_MEASURED: pIC50
pIC50 here is simply -log10 of the concentration when that concentration is written in mol/L.

>  <MOLECULE>
COC(=O)/C=C/c1cc(OC)c2c(c1)[C@H](C(=O)OC)[C@@H](c1ccc(O)c(OC)c1)O2 (racemic)

>  <pIC50>
4.97

$$$$
>  <MOLECULE>
COc1ccc([C@H]2Oc3ccc(/C=C/C(=O)OC(C)(C)C)cc3[C@@H]2CF)cc1OC (racemic)

>  <pIC50>
4.89

$$$$
>  <MOLECULE>
COc1cc([C@H]2Oc3ccc(Br)cc3[C@@H]2CO)c(Br)cc1O (racemic)

>  <pIC50>
4.97

$$$$
>  <MOLECULE>
OC[C@H]1c2ccccc2O[C@@H]1c1cc(Br)c(O)c(Br)c1 (racemic)

>  <pIC50>
5.00

$$$$
>  <MOLECULE>
COC(=O)/C=C/c1cc(O)c2c(c1)[C@H](C(=O)OC)[C@@H](c1ccc(O)c(O)c1)O2 (racemic)

>  <pIC50>
4.90

$$$$

Per the records, this molecule ( COC(=O)/C=C/c1ccc2c(c1)[C@H](C(=O)OC)[C@@H](c1ccc(O)cc1)O2 (racemic) ) has pIC50 equal to 5.11

Per the records, this molecule ( CCOC(=O)/C=C/c1ccc2c(c1)[C@H](C(=O)OCC)[C@@H](c1ccc(O)cc1)O2 (racemic) ) has pIC50 equal to 5.13

Per the records, this molecule ( CCCCOC(=O)/C=C/c1ccc2c(c1)[C@H](C(=O)OCCCC)[C@@H](c1ccc(O)cc1)O2 (racemic) ) has pIC50 equal to 4.97

Per the records, this molecule ( COc1cc([C@H]2Oc3ccc(Cl)cc3[C@@H]2C)cc(Cl)c1O (racemic) ) has pIC50 equal to 4.87
